Measured ΔTm, listed per entry for reference.
Tested on: DNA
Method notes: Binding affinity to calf thymus DNA at 5 uM after 4 hrs by UV-visible spectrophotometric analysis
Type: nucleic-acid assay
Recorded conditions: Bos taurus

>  <Chemical structure>
CCOC(=O)c1nc(NC(=O)c2nc(NC(=O)c3nc(NC(=O)CCCOc4cc5c(cc4OC)C(=O)N4CCC[C@H]4C=N5)cn3C)cn2C)cn1C

>  <System>
DNA

>  <ΔTm (°C)>
11.7

$$$$
>  <Chemical structure>
CCOC(=O)c1nc(NC(=O)c2cc(NC(=O)c3nc(NC(=O)CCCOc4cc5c(cc4OC)C(=O)N4CCC[C@H]4C=N5)cn3C)cn2C)cn1C

>  <System>
DNA

>  <ΔTm (°C)>
15.7

$$$$
>  <Chemical structure>
CCOC(=O)c1csc(NC(=O)c2csc(NC(=O)c3csc(NC(=O)CCCOc4cc5c(cc4OC)C(=O)N4CCC[C@H]4C=N5)n3)n2)n1

>  <System>
DNA

>  <ΔTm (°C)>
10.7

$$$$
>  <Chemical structure>
CCOC(=O)c1nc(NC(=O)c2cc(NC(=O)c3cc(NC(=O)CCCOc4cc5c(cc4OC)C(=O)N4CCC[C@H]4C=N5)cn3C)cn2C)cn1C

>  <System>
DNA

>  <ΔTm (°C)>
17.6

$$$$
>  <Chemical structure>
COC(=O)c1cc(NC(=O)c2cc(NC(=O)c3nc(NC(=O)CCCOc4cc5c(cc4OC)C(=O)N4CCC[C@H]4C=N5)cn3C)cn2C)cn1C

>  <System>
DNA

>  <ΔTm (°C)>
19.8

$$$$
>  <Chemical structure>
CCOC(=O)c1csc(NC(=O)c2csc(NC(=O)c3cc(NC(=O)CCCOc4cc5c(cc4OC)C(=O)N4CCC[C@H]4C=N5)cn3C)n2)n1

>  <System>
DNA

>  <ΔTm (°C)>
8.1

$$$$
>  <Chemical structure>
CCOC(=O)c1csc(NC(=O)c2cc(NC(=O)c3csc(NC(=O)CCCOc4cc5c(cc4OC)C(=O)N4CCC[C@H]4C=N5)n3)cn2C)n1

>  <System>
DNA

>  <ΔTm (°C)>
7.1

$$$$
>  <Chemical structure>
COC(=O)c1cc(NC(=O)c2nc(NC(=O)c3cc(NC(=O)CCCOc4cc5c(cc4OC)C(=O)N4CCC[C@H]4C=N5)cn3C)cn2C)cn1C

>  <System>
DNA

>  <ΔTm (°C)>
16

$$$$
>  <Chemical structure>
COC(=O)c1cc(NC(=O)c2csc(NC(=O)c3cc(NC(=O)CCCOc4cc5c(cc4OC)C(=O)N4CCC[C@H]4C=N5)cn3C)n2)cn1C

>  <System>
DNA

>  <ΔTm (°C)>
19.9

$$$$
>  <Chemical structure>
COC(=O)c1cc(NC(=O)c2cc(NC(=O)c3cc(NC(=O)CCCOc4cc5c(cc4OC)C(=O)N4CCC[C@H]4C=N5)cn3C)cn2C)cn1C

>  <System>
DNA

>  <ΔTm (°C)>
18.7

$$$$
>  <Chemical structure>
COC(=O)c1cc(NC(=O)c2cc(NC(=O)c3csc(NC(=O)CCCOc4cc5c(cc4OC)C(=O)N4CCC[C@H]4C=N5)n3)cn2C)cn1C

>  <System>
DNA

>  <ΔTm (°C)>
17.4

$$$$
>  <Chemical structure>
COC(=O)c1cc(NC(=O)c2nc(NC(=O)c3nc(NC(=O)CCCOc4cc5c(cc4OC)C(=O)N4CCC[C@H]4C=N5)cn3C)cn2C)cn1C

>  <System>
DNA

>  <ΔTm (°C)>
15

$$$$
>  <Chemical structure>
CCOC(=O)c1csc(NC(=O)c2cc(NC(=O)c3cc(NC(=O)CCCOc4cc5c(cc4OC)C(=O)N4CCC[C@H]4C=N5)cn3C)cn2C)n1

>  <System>
DNA

>  <ΔTm (°C)>
17.7

$$$$
>  <Chemical structure>
CCOC(=O)c1nc(NC(=O)c2nc(NC(=O)c3cc(NC(=O)CCCOc4cc5c(cc4OC)C(=O)N4CCC[C@H]4C=N5)cn3C)cn2C)cn1C

>  <System>
DNA

>  <ΔTm (°C)>
14.8

$$$$
